# System: CAKI-1 renal
# test-protocol: NCI tumour cell line growth inhibition, 48 h
Measured TGI of individual entries

| molecule | TGI |
| --- | --- |
| C=CCOC1CC(n2cnc3c(N)ncnc32)OC1CO (stereo unspecified) | > 100 µM |

Switching to the query record.
Query: Value lookup for TGI; key = `O=C1C[C@@H]2[C@@H](CCC23CCCC3)N1`
Response: > 100 µM

---

# Test system: TK-10 renal
# test-protocol: NCI tumour cell line growth inhibition, 48 h; in the data active = GI50 below about 0.43 µM; inactive = the rest
The reply should name one outcome from y for active, n for inactive

| compound | label-value |
| --- | --- |
| CS(=O)(=O)O[C@H]1C(=O)N(c2cc3c4ccccc4ccc3c3ccccc23)[C@@H]1c1ccccn1 | n |
| C=C1C(=O)O[C@@H]2C[C@@H]1CC[C@]1(C)O[C@H]1CC/C(C)=C/CC[C@@]2(C)O | n |

Query: Called result for `CON=C1C[C@]2(C[C@@H]3C[C@@H](C/C=C(\C)C[C@@H](C)/C=C/C=C4\CO[C@@H]5[C@H](O)C(C)=C[C@@H](C(=O)O3)[C@]45O)O2)O[C@H](/C(C)=C/C(C)C)[C@H]1C`
Response: n

Query: Called result for `CCC(CC)c1cc(N[C@H]2CC[C@H](N)C2)n2nccc2n1`
Response: n

Query: Called result for Clc1ccc(C2CC(c3cccc(Nc4ccncc4)c3)=NN2c2ccccc2)cc1 (centres undefined)
Response: n

Query: Called result for `Cc1cncc(-c2nc(NCCc3c[nH]c4ccccc34)c3ncn(C(C)C)c3n2)c1`
Response: n

Query: Called result for `Nc1c(C(=O)c2ccc(C#CCN3CCOCC3)cc2)cnn1-c1ccc(F)cc1`
Response: n

Query: Called result for `CS(=O)(=O)c1ccc2c(c1)C(=O)c1c-2n(CCCBr)c(=O)c2cc([N+](=O)[O-])ccc12`
Response: n

Query: Called result for `O=C(NCCCl)NCCN1c2nc3ccccc3cc2Sc2cc3ccccc3nc21`
Response: n

Query: Called result for COc1ccc(C2CC(c3ccccc3)=NN2C(=O)c2cc(OC)c(OC)c(OC)c2)cc1O (centres undefined)
Response: n

---

# Test system: HS 578T breast
# test-protocol: NCI tumour cell line growth inhibition, 48 h
measured-endpoint: TGI

| compound | value |
| --- | --- |
| c1ccc(COCC[P+](c2ccccc2)(c2ccccc2)c2ccccc2)cc1 | 17.9 µM |
| COc1ccc(CN2C(=O)/C(=C\C(=O)c3ccc(OCCN4CCCC4)cc3)c3ccccc32)cc1 | 54.6 µM |
| N#CC(c1ccccc1)N(CCc1ccccc1)C(=O)c1ccc(C(=O)N(CCc2ccccc2)C(C#N)c2ccccc2)cc1 (centres undefined) | 39.1 µM |

Query: Value lookup for TGI; key = C=C[C@]1(C)CC(=O)C(C(C)C=O)[C@]12C(=O)Oc1cccc(C)c1C2=O (some centres undefined)
Response: 42.7 µM

Query: Value lookup for TGI; key = `CCOC(=O)c1cc(-c2ccc([N+](=O)[O-])cc2)c([N+](=O)[O-])[nH]1`
Response: > 10 µM

Query: Value lookup for TGI; key = `O=C(COc1cccc(/C=C2\COc3ccccc3C2=O)c1)c1ccccc1`
Response: > 100 µM

---

# Test system: UO-31 renal
# test-protocol: NCI tumour cell line growth inhibition, 48 h
measured-endpoint: TGI

| compound | assayed-target | measured-endpoint | value |
| --- | --- | --- | --- |
| CCCCCCCCCCCCNC(=O)N[C@H](C(=O)N[C@H]1/C=C/CCNC(=O)/C=C/[C@H](C)NC1=O)C(C)C | UO-31 renal | TGI | > 100 µM |
| Clc1ccc(C2CC(c3cccc(Nc4ccncc4)c3)=NN2c2ccccc2)cc1 (stereo not drawn) | UO-31 renal | TGI | 2.79 µM |

Query: Report TGI for CC1OC(OC2C(OC(=O)[C@]34CCC(C)(C)CC3C3=CCC5[C@@]6(C)C[C@H](O)[C@H](OC7OC(COC8OC(CO)C(O)C(O)C8O)C(O)C(O)C7O)[C@@](C)(C(=O)O)C6CC[C@@]5(C)C3(C)CC4)OCC(O)C2O)C(O)C(O)C1OC1OCC(O)C(O)C1O (stereo partly drawn) tested on UO-31 renal.
Response: > 100 µM

---

# System: T-47D breast
# test-protocol: NCI tumour cell line growth inhibition, 48 h
measured-endpoint: TGI

See these solved cases before continuing.
| molecule | TGI |
| --- | --- |
| C[C@@H]1CC[C@H]2[C@@H](C)C(OC/C=C/COC3O[C@@H]4O[C@@]5(C)CC[C@H]6[C@H](C)CC[C@@H]([C@H]3C)[C@@]46OO5)O[C@@H]3O[C@@]4(C)CC[C@@H]1[C@]32OO4 (some centres undefined) | > 100 µM |
| CS(=O)(=O)O[C@H]1C(=O)N(c2cc3c4ccccc4ccc3c3ccccc23)[C@@H]1c1ccccn1 | > 100 µM |

Query: Value lookup for TGI; key = `COc1ccc(OC)c(N=Cc2cc(OC)c(OC)c(OC)c2)c1`
Response: > 100 µM

Query: Value lookup for TGI; key = Cc1nn(C(=O)c2ccc(Cl)cc2)c2c1C(c1ccccc1O)SC(N)=N2 (centres undefined)
Response: > 10 µM

Query: Value lookup for TGI; key = `[N-]=[N+]=NCCCn1c2c(c3ccc([N+](=O)[O-])cc3c1=O)C(=O)c1cc(I)ccc1-2`
Response: > 100 µM

Query: Value lookup for TGI; key = `O=C(Nc1ccc(Oc2ccc(NC(=O)Nc3ccccc3Cl)cc2)cc1)Nc1ccccc1Cl`
Response: > 90.6 µM

Query: Value lookup for TGI; key = `CCOC(=O)c1cc(C2=CCNC2=O)c(-c2cc(C)no2)[nH]1`
Response: > 100 µM

Query: Value lookup for TGI; key = `CCCCCCCCCCCCNC(=O)N[C@H](C(=O)N[C@H]1/C=C/CCNC(=O)/C=C/[C@H](C)NC1=O)C(C)C`
Response: 0.36 µM

Query: Value lookup for TGI; key = `CCCCCCc1cc2cc(C(=O)NCc3ccccc3)c(=N)oc2cc1O`
Response: > 100 µM

---

Measured TGI of individual entries
# Test system: NCI-H522 lung
# test-protocol: NCI tumour cell line growth inhibition, 48 h
Kindly answer with a numeric value in µM, unit omitted.

| compound | TGI [µM] |
| --- | --- |
| CCC(CC)c1cc(N[C@H]2CC[C@H](N)C2)n2nccc2n1 | 1.55 |
| CCC1(OC(=O)CNC)C(=O)OCc2c1cc1n(c2=O)Cc2cc3ccccc3nc2-1 (stereo unspecified) | 0.285 |
| Cc1ccc(S(=O)(=O)OCC(=O)Nc2ccc(C(=O)O)c(O)c2)cc1 | 34.6 |
| O=C(Nc1ccccc1)n1cc(-c2ccccn2)c(N2CCOCC2)n1 | 6.58 |

Switching to the query record.
Query: Value lookup for TGI; key = `CCN(CC)C(=S)/N=C(\SC(=S)N(CC)CC)c1ccccc1`
Response: 3.39

---

# Test system: ACHN renal
# test-protocol: NCI tumour cell line growth inhibition, 48 h; in the data active = GI50 below about 0.43 µM; inactive = the rest
The reply should name one outcome from active, inactive

| compound | label-value |
| --- | --- |
| CCCCCCCCCCCCNC(=O)N[C@H](C(=O)N[C@H]1/C=C/CCNC(=O)/C=C/[C@H](C)NC1=O)C(C)C | inactive |
| O=C(CN1CCN(CCN2C(=O)c3cccc4cccc(c34)C2=O)CC1)Nc1ccc2ncsc2c1 | inactive |
| C[C@]12CCCN1CC1=NNC(=O)c3cc(F)cc4[nH]c2c1c34 | inactive |

Query: Called result for COc1cc(N2CCN(C(C)C)CC2)ccc1Nc1nc(Nc2ccc(F)cc2C(=O)NCC(O)CO)c2cc[nH]c2n1 (stereo not given)
Response: inactive

Query: Called result for `Clc1ccc(-c2nc3c(-c4ccccc4)nc(-c4ccccc4)cn3c2-c2ccc(Cl)cc2)cc1`
Response: inactive

Query: Called result for `COc1cc(-c2cc(-c3cccs3)c(C#N)c(N3CCOCC3)n2)cc(OC)c1OC`
Response: inactive

Query: Called result for `c1ccc(COCC[P+](c2ccccc2)(c2ccccc2)c2ccccc2)cc1`
Response: inactive

Query: Called result for `Cc1cc(O[C@@H]2O[C@@H](C)[C@H](O)[C@@H](O)[C@H]2O)c2c3c(c(O[C@@H]4O[C@@H](C)[C@H](O)[C@@H](O)[C@H]4O)cc2c1)C(=O)c1c(O)cccc1C3=O`
Response: inactive

---

# Test system: HCT-15 colon
# test-protocol: NCI tumour cell line growth inhibition, 48 h
measured-endpoint: TGI

| compound | TGI |
| --- | --- |
| O=C1C[C@@H]2[C@@H](CCC23CCCC3)N1 | > 100 µM |

Query: Value lookup for TGI; key = `CC(=O)N(C)c1cc(NCc2ccccc2)ccc1OCc1ccccc1`
Response: 39.2 µM

Query: Value lookup for TGI; key = Nc1nc(=S)c2ncn(C3OC(CO)C(O)C3O)c2[nH]1 (stereo unspecified)
Response: > 100 µM
